Data provenance is patent US7977322B2.

molecular target: ΔF508-CFTR (Homo sapiens, UniProt P13569, DEL508-508); construct: expressed in transfected cells; test: Membrane potential optical (FRET/VIPR) assay, identification of correction compounds; assay type: cell-based; settings: Table 3; assay not given; read-out: % Activity / % Efficacy (relative efficacy)
Sequence (P13569 with tags, fused parts or gaps DEL508-508): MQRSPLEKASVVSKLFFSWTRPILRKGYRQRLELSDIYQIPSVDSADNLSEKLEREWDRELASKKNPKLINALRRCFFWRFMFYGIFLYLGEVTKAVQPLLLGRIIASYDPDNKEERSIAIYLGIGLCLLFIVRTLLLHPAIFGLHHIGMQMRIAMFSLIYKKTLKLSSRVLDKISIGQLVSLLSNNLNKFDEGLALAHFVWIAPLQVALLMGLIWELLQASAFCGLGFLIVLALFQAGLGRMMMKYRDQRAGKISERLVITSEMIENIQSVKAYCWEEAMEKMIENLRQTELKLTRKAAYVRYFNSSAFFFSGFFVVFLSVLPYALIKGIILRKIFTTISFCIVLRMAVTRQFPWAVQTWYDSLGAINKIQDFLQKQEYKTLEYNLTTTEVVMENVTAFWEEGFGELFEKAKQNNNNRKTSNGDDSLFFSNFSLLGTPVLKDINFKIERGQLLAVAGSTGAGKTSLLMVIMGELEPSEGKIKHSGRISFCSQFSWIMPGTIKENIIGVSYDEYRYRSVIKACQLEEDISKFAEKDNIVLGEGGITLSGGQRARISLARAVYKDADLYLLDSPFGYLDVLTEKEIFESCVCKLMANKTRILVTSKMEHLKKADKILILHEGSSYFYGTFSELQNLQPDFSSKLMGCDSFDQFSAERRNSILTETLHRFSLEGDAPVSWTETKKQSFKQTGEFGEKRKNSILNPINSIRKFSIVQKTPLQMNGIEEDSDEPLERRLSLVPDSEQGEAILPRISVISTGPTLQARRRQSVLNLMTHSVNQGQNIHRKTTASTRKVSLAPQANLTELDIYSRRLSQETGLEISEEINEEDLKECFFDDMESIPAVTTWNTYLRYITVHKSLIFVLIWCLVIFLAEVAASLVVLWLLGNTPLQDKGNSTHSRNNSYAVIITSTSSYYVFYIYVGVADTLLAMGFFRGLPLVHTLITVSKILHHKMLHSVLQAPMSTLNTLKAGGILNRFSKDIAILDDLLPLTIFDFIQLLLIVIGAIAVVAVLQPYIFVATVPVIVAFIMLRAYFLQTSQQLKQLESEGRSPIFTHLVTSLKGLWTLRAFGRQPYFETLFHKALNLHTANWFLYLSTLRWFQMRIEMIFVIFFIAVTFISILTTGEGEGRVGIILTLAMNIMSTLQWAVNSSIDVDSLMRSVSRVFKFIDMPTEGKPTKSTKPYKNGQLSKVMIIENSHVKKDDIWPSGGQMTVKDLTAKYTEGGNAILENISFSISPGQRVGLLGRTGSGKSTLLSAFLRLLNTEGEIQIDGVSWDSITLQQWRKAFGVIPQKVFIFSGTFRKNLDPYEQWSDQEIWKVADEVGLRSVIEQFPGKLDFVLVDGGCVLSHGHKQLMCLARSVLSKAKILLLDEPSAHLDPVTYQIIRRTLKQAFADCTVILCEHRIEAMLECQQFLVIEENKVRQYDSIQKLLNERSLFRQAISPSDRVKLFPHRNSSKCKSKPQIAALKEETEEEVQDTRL
METRIC_NAME: Emax

Worked set:
{"columns": ["COMPOUND", "STUDY_SYSTEM", "Emax"],
 "data": [
  ["CC(C)C[C@H](CO)NC(c1cnc(NC(=O)C2(c3ccc4c(c3)OCO4)CC2)s1)c1ccccc1Cl (stereo partly drawn) [Example 438]", "ΔF508-CFTR (Homo sapiens, UniProt P13569, DEL508-508)", "> 100%"],
  ["O=C(Nc1ncc(Cc2ccccc2Cl)s1)C1(c2cccc(N3CCOCC3)c2)CC1 [Example 315]", "ΔF508-CFTR (Homo sapiens, UniProt P13569, DEL508-508)", "25 to 100%"],
  ["O=C(Nc1ncc(C(c2ccccc2Cl)N2CCC[C@@H]2CO)s1)C1(c2ccc3c(c2)OCO3)CC1 (stereo partly drawn) [Example 229]", "ΔF508-CFTR (Homo sapiens, UniProt P13569, DEL508-508)", "> 100%"],
  ["COc1ccc(C2(C(=O)Nc3ncc(C(c4ccccc4Cl)N4CC[C@@H](O)C4)s3)CC2)cc1 (stereo partly drawn) [Example 420]", "ΔF508-CFTR (Homo sapiens, UniProt P13569, DEL508-508)", "> 100%"],
  ["COc1ccc(C(c2cnc(NC(=O)C3(c4ccc5c(c4)OCO5)CC3)s2)N2CCCC2)cc1 (stereo not drawn) [Example 362]", "ΔF508-CFTR (Homo sapiens, UniProt P13569, DEL508-508)", "> 100%"]
]}

// moving on: another record for Emax
For the compound shown here, O=C(Nc1ncc(C(c2ccccc2Cl)N2CC[C@@H](O)C2)s1)C1(c2ccc(C(F)(F)F)cc2)CC1 (stereo partly drawn) [Example 445] , give the reported Emax.
> 100%
